Where do the numbers come from? From paper PMC10287555.

- run_description: Plasma pharmacokinetics, cycle 1 day 1 (LC–MS/MS, non-compartmental analysis)
- Format: in vivo, human
- study_conditions: human, plasma, oral, 60 mg, Tau 12 hr, cycle 1 day 1; read-out: Tmax, median
quantity_measured: Tmax (h)
Supply the numeric figure in h, leaving out any unit text.

Please fill in: Tmax reported for "C[C@@H]1COCCN1c1cc([C@]2(O)C[C@H]3CC[C@@H](C2)O3)c2cnn(-c3cc[nH]n3)c2n1" = 1.55

====

- run_description: Plasma pharmacokinetics, cycle 1 day 1 (LC–MS/MS, non-compartmental analysis)
- Assay type: in vivo, human
- study_conditions: human, plasma, oral, 120 mg, Tau 24 hr, cycle 1 day 1; read-out: Tmax, median
- Method: The plasma levels from cycle 1, day 1 of camonsertib were quantified using a validated liquid chromatography tandem–mass spectrometry (LC–MS/MS) method. […] All PK parameters were calculated using actual sampling times. Mean plasma concentration time profiles at given dose levels and regimens were plotted on semi-logarithmic plots using nominal times.
quantity_measured: Tmax

Please fill in: Tmax reported for "C[C@@H]1COCCN1c1cc([C@]2(O)C[C@H]3CC[C@@H](C2)O3)c2cnn(-c3cc[nH]n3)c2n1" = 2.03 h

====

- run_description: Plasma pharmacokinetics, cycle 1 day 1 (LC–MS/MS, non-compartmental analysis)
- Format: in vivo, human
- study_conditions: human, plasma, oral, 120 mg, Tau 24 hr, cycle 1 day 1; read-out: AUC0-12, geometric mean
quantity_measured: AUC(0-t) (ng·h/mL)
Supply the numeric figure in ng·h/mL, leaving out any unit text.

Please fill in: AUC(0-t) reported for "C[C@@H]1COCCN1c1cc([C@]2(O)C[C@H]3CC[C@@H](C2)O3)c2cnn(-c3cc[nH]n3)c2n1" = 23900

====

- run_description: Plasma pharmacokinetics, cycle 1 day 1 (LC–MS/MS, non-compartmental analysis)
- Assay type: in vivo, human
- study_conditions: human, plasma, oral, 80 mg, Tau 12 hr, cycle 1 day 1; read-out: Tmax, median
- Method: The plasma levels from cycle 1, day 1 of camonsertib were quantified using a validated liquid chromatography tandem–mass spectrometry (LC–MS/MS) method. […] All PK parameters were calculated using actual sampling times. Mean plasma concentration time profiles at given dose levels and regimens were plotted on semi-logarithmic plots using nominal times.
quantity_measured: Tmax

Please fill in: Tmax reported for C[C@@H]1COCCN1c1cc([C@]2(O)C[C@H]3CC[C@@H](C2)O3)c2cnn(-c3cc[nH]n3)c2n1 [camonsertib] = 2.17 h

====

- run_description: Plasma pharmacokinetics, cycle 1 day 1 (LC–MS/MS, non-compartmental analysis)
- Type: in vivo, human
- study_conditions: human, plasma, oral, 5 mg, Tau 24 hr, cycle 1 day 1; read-out: AUC0-t, geometric mean
quantity_measured: AUC(0-t) (ng·h/mL)
Supply the numeric figure in ng·h/mL, leaving out any unit text.

Please fill in: AUC(0-t) reported for "C[C@@H]1COCCN1c1cc([C@]2(O)C[C@H]3CC[C@@H](C2)O3)c2cnn(-c3cc[nH]n3)c2n1" = 2100

====

- run_description: Plasma pharmacokinetics, cycle 1 day 1 (LC–MS/MS, non-compartmental analysis)
- Assay type: in vivo, human
- study_conditions: human, plasma, oral, 160 mg, Tau 24 hr, cycle 1 day 1; read-out: Cmax, geometric mean
quantity_measured: Cmax

Please fill in: Cmax reported for "C[C@@H]1COCCN1c1cc([C@]2(O)C[C@H]3CC[C@@H](C2)O3)c2cnn(-c3cc[nH]n3)c2n1" = 7300 ng/mL

====

- run_description: Plasma pharmacokinetics, cycle 1 day 1 (LC–MS/MS, non-compartmental analysis)
- Format: in vivo, human
- study_conditions: human, plasma, oral, 80 mg, Tau 12 hr, cycle 1 day 1; read-out: AUC0-12, geometric mean
quantity_measured: AUC(0-t) (ng·h/mL)
Supply the numeric figure in ng·h/mL, leaving out any unit text.

Please fill in: AUC(0-t) reported for "C[C@@H]1COCCN1c1cc([C@]2(O)C[C@H]3CC[C@@H](C2)O3)c2cnn(-c3cc[nH]n3)c2n1" = 21400

====

- run_description: Plasma pharmacokinetics, cycle 1 day 1 (LC–MS/MS, non-compartmental analysis)
- Type: in vivo, human
- study_conditions: human, plasma, oral, 20 mg, Tau 24 hr, cycle 1 day 1; read-out: Tmax, median
quantity_measured: Tmax

Please fill in: Tmax reported for "C[C@@H]1COCCN1c1cc([C@]2(O)C[C@H]3CC[C@@H](C2)O3)c2cnn(-c3cc[nH]n3)c2n1" = 10.7 h

====

- run_description: Plasma pharmacokinetics, cycle 1 day 1 (LC–MS/MS, non-compartmental analysis)
- Assay type: in vivo, human
- study_conditions: human, plasma, oral, 120 mg, Tau 24 hr, cycle 1 day 1; read-out: AUC0-t, geometric mean
quantity_measured: AUC(0-t)
Give me the value, and tack the unit on after it.

Please fill in: AUC(0-t) reported for "C[C@@H]1COCCN1c1cc([C@]2(O)C[C@H]3CC[C@@H](C2)O3)c2cnn(-c3cc[nH]n3)c2n1" = 29500 ng·h/mL

====

- run_description: Plasma pharmacokinetics, cycle 1 day 1 (LC–MS/MS, non-compartmental analysis)
- Format: in vivo, human
- study_conditions: human, plasma, oral, 40 mg, Tau 24 hr, cycle 1 day 1; read-out: Cmax, geometric mean
quantity_measured: Cmax
Give me the value, and tack the unit on after it.

Please fill in: Cmax reported for "C[C@@H]1COCCN1c1cc([C@]2(O)C[C@H]3CC[C@@H](C2)O3)c2cnn(-c3cc[nH]n3)c2n1" = 1200 ng/mL

====

- run_description: Plasma pharmacokinetics, cycle 1 day 1 (LC–MS/MS, non-compartmental analysis)
- Format: in vivo, human
- study_conditions: human, plasma, oral; Dose 40 mg, Tau 12 hr, cycle 1 day 1; read-out: AUC0-INF, geometric mean
quantity_measured: AUC(0-inf) (µg·h/mL)
Supply the numeric figure in µg·h/mL, leaving out any unit text.

Please fill in: AUC(0-inf) reported for "C[C@@H]1COCCN1c1cc([C@]2(O)C[C@H]3CC[C@@H](C2)O3)c2cnn(-c3cc[nH]n3)c2n1" = 153

====

- run_description: Plasma pharmacokinetics, cycle 1 day 1 (LC–MS/MS, non-compartmental analysis)
- Type: in vivo, human
- study_conditions: human, plasma, oral; Dose 60 mg, Tau 12 hr, cycle 1 day 1; read-out: AUC0-INF, geometric mean
quantity_measured: AUC(0-inf) (ng·h/mL)
Supply the numeric figure in ng·h/mL, leaving out any unit text.

Please fill in: AUC(0-inf) reported for "C[C@@H]1COCCN1c1cc([C@]2(O)C[C@H]3CC[C@@H](C2)O3)c2cnn(-c3cc[nH]n3)c2n1" = 66100

====

- run_description: Plasma pharmacokinetics, cycle 1 day 1 (LC–MS/MS, non-compartmental analysis)
- Format: in vivo, human
- study_conditions: human, plasma, oral, 160 mg, Tau 24 hr, cycle 1 day 1; read-out: Tmax, median
- Experimental: The plasma levels from cycle 1, day 1 of camonsertib were quantified using a validated liquid chromatography tandem–mass spectrometry (LC–MS/MS) method. […] All PK parameters were calculated using actual sampling times. Mean plasma concentration time profiles at given dose levels and regimens were plotted on semi-logarithmic plots using nominal times.
quantity_measured: Tmax (h)
Supply the numeric figure in h, leaving out any unit text.

Please fill in: Tmax reported for C[C@@H]1COCCN1c1cc([C@]2(O)C[C@H]3CC[C@@H](C2)O3)c2cnn(-c3cc[nH]n3)c2n1 [camonsertib] = 1.21

====

- run_description: Plasma pharmacokinetics, cycle 1 day 1 (LC–MS/MS, non-compartmental analysis)
- Type: in vivo, human
- study_conditions: human, plasma, oral; Dose 80 mg, Tau 24 hr, cycle 1 day 1; read-out: AUC0-INF, geometric mean
quantity_measured: AUC(0-inf) (ng·h/mL)
Supply the numeric figure in ng·h/mL, leaving out any unit text.

Please fill in: AUC(0-inf) reported for C[C@@H]1COCCN1c1cc([C@]2(O)C[C@H]3CC[C@@H](C2)O3)c2cnn(-c3cc[nH]n3)c2n1 [camonsertib] = 21000
